Molecular target: T-type calcium channel (Homo sapiens, UniProt O95180)
Experiment: T-type channel blocking, FLIPR data (Table 6)
Assay type: cell-based
Details: CAv3.2, closed state, read-out: CAv3.2 IC50 Closed
parameter: pIC50
// pIC50 is dimensionless: -log10 of concentration (M)

Record request: pIC50 value, item CC(C)([C@H]1C[C@@H](CNC(=O)c2ccc(OCC(F)(F)F)nc2)C1)S(=O)(=O)c1cccc(C(F)(F)F)c1 [Compound 686]
5.92

Record request: pIC50 value, item CC(C)([C@H]1C[C@H](NC(=O)c2ccc(C(F)(F)F)cc2)C1)S(=O)(=O)c1cccc(C(F)(F)F)c1 [Compound 677]
5.75

pIC50 for CC(C)S(=O)(=O)c1cc(C(F)(F)F)cnc1C(=O)N[C@H]1C[C@H](C(C)(C)S(=O)(=O)c2cccc(OC(F)(F)F)c2)C1 [Compound 638] ?
5.26

Suppose we examine the compound CC(C)(C[C@H]1C[C@H](NC(=O)c2ccc(Cl)cn2)C1)S(=O)(=O)c1cccc(C(F)(F)F)c1 [Compound 720] ; what pIC50 value has been reported?
5.40

What value of measured pIC50 is listed for CC(C)S(=O)(=O)c1cc(C(F)(F)F)cnc1C(=O)N[C@H]1C[C@@H](C(C)(C)S(=O)(=O)c2cccc(OC(F)(F)F)c2)C1 [Compound 645] ?
5.00

Would you kindly share the measured pIC50 for CC(C)([C@H]1C[C@H](NC(=O)c2ccc(F)c(Cl)c2)C1)S(=O)(=O)c1cc(F)cc(C(F)(F)F)c1 [Compound 597] ?
5.51

Item under review: CC(C)([C@H]1C[C@@H](NC(=O)c2ccc(Cl)cn2)C1)S(=O)(=O)c1cccc(C(F)(F)F)c1 [Compound 578] . Reported pIC50?
5.11

What does the data say about its pIC50? Entry: CC(C)([C@H]1C[C@H](NS(=O)(=O)c2ccc(C(F)(F)F)cc2)C1)S(=O)(=O)c1cc(F)cc(C(F)(F)F)c1 [Compound 605]
5.32

Reported pIC50 for CC(C)([C@H]1C[C@@H](NS(=O)(=O)c2ccc(Cl)c(F)c2)C1)S(=O)(=O)c1cccc(C(F)(F)F)c1 [Compound 626] : what is it?
5.41

Recorded pIC50 of O=C(NC[C@H]1C[C@H](S(=O)(=O)c2cccc(C(F)(F)F)c2)C1)c1ccc(Cl)cn1 [Compound 573] , please.
5.09

// query pIC50 value for entry O=C(c1ccc(OCC(F)(F)F)nc1)N1CC(CS(=O)(=O)c2cc(F)cc(C(F)(F)F)c2)C1 [Compound 747]
5.00

Find the recorded pIC50 belonging to CC(C)([C@H]1C[C@@H](NC(=O)c2cc(C(F)(F)F)n[nH]2)C1)S(=O)(=O)c1cccc(OC(F)(F)F)c1 [Compound 639] and report it.
5.59

May I ask what pIC50 has been recorded for CC(C)([C@H]1C[C@H](NC(=O)c2ccc(OCC(F)(F)F)nc2)C1)S(=O)(=O)c1cccc(C(F)(F)F)c1 [Compound 674] ?
5.56

Could you tell me which pIC50 is on file for CC(C)([C@H]1C[C@H](NC(=O)c2cc(C(F)(F)F)n[nH]2)C1)S(=O)(=O)c1cccc(OC(F)(F)F)c1 [Compound 632] ?
6.24

GET /values?readout=pIC50&item= O=C(NC[C@H]1C[C@H](S(=O)(=O)c2cccc(C(F)(F)F)c2)C1)c1ccc(C(F)(F)F)cc1 [Compound 572]
5.59

Using the record for CC(C)([C@H]1C[C@@H](CNC(=O)c2ccc(F)c(Cl)c2)C1)S(=O)(=O)c1cccc(C(F)(F)F)c1 [Compound 685] , report its pIC50.
6.36

Entry O=C(NC[C@H]1C[C@H](S(=O)(=O)c2cc(F)cc(C(F)(F)F)c2)C1)c1ccc(OCC(F)(F)F)nc1 [Compound 706] has what pIC50?
5.40

# pIC50 lookup, item CC(C)([C@H]1C[C@H](C(=O)Nc2ccc(C(F)(F)F)cc2)C1)S(=O)(=O)c1cccc(C(F)(F)F)c1 [Compound 765]
5.34

GET /values?readout=pIC50&item= CC(C)(C[C@H]1C[C@@H](NC(=O)c2ccc(C(F)(F)F)nc2)C1)S(=O)(=O)c1cccc(C(F)(F)F)c1 [Compound 736]
5.18

Fill blank: measured pIC50 of the compound CC(C)([C@H]1C[C@@H](NC(=O)c2ccc(F)c(Cl)c2)C1)S(=O)(=O)c1cccc(OC(F)(F)F)c1 [Compound 641] is ____.
6.54

* * *

Biological target: CAv1.2 (Homo sapiens, UniProt Q13936)
Sequence (Q13936 whole entry): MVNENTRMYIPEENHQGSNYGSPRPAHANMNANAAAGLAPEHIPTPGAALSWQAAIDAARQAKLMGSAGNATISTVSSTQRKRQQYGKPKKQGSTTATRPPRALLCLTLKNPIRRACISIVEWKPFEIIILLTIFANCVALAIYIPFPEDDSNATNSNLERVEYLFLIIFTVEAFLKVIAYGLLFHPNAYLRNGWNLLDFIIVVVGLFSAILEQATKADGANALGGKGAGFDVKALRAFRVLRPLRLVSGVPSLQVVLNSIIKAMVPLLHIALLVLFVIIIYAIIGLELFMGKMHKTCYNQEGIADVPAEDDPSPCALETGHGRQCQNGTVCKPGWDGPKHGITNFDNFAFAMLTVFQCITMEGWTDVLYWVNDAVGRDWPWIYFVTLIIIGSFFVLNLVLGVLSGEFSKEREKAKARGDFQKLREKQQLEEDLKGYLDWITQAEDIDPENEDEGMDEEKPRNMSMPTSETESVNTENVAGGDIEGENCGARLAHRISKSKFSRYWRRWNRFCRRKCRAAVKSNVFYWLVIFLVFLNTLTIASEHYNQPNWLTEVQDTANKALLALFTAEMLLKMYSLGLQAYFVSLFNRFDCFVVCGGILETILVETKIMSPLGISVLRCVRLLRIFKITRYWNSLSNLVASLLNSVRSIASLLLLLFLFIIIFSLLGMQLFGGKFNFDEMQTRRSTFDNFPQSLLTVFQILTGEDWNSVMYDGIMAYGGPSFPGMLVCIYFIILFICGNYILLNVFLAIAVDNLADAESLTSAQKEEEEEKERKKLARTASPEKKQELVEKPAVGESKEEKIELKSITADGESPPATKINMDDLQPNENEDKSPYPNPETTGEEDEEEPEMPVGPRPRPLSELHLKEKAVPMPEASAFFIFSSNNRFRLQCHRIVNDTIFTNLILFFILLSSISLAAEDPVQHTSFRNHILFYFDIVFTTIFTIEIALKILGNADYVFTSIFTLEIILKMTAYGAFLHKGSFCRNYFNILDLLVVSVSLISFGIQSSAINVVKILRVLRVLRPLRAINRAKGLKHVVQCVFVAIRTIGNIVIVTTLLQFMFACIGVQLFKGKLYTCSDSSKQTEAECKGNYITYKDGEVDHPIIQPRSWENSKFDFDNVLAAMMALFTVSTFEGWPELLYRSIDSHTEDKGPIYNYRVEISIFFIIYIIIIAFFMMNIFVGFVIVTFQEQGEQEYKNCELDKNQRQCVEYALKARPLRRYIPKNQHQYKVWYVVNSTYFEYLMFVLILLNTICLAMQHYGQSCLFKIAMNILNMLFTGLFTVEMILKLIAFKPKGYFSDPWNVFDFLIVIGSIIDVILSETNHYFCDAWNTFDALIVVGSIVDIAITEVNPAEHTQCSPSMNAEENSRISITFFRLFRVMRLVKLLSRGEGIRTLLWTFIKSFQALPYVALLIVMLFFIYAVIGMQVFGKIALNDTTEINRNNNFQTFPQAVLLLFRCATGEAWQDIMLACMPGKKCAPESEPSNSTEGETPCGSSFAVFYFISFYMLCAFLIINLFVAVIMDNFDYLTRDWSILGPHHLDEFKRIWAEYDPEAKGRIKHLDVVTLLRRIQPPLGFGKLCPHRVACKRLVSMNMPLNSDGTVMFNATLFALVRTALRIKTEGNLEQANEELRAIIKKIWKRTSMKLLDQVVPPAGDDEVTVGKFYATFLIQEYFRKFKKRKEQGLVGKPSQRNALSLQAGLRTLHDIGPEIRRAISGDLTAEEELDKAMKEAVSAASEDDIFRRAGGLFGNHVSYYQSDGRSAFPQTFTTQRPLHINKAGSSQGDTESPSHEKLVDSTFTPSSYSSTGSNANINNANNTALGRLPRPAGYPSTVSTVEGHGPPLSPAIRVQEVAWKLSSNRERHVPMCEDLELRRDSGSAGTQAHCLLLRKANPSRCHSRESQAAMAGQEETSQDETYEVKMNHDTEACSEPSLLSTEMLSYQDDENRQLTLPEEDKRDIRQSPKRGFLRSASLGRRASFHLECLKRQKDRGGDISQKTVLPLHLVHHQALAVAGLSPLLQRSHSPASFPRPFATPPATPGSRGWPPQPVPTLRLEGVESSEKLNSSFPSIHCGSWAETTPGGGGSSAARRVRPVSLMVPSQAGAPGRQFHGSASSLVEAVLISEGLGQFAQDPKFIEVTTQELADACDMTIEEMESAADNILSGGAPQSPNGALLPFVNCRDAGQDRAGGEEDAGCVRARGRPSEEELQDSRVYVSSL
Sequence (P54289 25-1103 partner): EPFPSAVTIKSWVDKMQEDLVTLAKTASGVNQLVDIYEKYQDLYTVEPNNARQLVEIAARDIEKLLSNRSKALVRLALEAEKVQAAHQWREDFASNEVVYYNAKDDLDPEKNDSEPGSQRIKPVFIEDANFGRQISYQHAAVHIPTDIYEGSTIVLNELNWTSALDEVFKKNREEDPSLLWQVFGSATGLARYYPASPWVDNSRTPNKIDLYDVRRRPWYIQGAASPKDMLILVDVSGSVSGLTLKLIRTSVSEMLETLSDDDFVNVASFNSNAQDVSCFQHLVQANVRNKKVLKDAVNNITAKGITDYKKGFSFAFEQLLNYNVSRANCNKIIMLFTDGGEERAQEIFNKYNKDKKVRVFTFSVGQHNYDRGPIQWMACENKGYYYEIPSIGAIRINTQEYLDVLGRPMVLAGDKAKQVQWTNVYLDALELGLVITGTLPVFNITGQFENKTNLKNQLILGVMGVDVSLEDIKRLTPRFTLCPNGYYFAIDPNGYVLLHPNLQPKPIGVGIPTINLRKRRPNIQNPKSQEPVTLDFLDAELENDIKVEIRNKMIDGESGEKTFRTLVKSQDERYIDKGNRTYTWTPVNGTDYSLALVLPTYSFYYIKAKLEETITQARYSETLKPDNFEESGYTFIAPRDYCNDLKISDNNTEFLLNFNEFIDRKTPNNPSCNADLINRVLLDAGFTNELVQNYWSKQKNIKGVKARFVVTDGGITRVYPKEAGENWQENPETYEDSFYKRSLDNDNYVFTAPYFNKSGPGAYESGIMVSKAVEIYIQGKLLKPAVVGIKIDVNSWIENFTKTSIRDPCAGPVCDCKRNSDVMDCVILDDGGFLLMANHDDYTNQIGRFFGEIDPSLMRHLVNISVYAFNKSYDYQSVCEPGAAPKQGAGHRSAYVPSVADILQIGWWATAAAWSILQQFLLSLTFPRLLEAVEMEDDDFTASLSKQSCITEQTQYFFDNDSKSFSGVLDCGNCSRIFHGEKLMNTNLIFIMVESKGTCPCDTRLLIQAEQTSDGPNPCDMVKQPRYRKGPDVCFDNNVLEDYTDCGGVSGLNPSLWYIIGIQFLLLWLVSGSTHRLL
Sequence (Q08289 whole entry partner): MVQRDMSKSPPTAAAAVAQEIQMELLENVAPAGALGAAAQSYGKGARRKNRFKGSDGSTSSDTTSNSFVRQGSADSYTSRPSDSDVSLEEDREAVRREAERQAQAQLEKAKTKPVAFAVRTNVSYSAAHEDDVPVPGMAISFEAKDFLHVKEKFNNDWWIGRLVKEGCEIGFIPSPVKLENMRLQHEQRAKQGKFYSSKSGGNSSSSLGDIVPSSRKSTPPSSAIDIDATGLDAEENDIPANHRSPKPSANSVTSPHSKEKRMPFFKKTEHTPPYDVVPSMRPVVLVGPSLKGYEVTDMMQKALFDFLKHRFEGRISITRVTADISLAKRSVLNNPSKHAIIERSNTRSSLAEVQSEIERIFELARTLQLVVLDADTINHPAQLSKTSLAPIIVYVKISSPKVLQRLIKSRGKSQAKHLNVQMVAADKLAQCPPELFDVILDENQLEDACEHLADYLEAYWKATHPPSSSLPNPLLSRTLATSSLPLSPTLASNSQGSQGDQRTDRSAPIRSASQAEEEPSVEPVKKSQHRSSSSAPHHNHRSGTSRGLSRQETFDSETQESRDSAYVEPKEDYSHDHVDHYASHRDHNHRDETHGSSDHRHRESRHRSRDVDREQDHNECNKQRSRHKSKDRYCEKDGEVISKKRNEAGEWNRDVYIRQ
Assay: FLIPR data, CAv1.2 channel blocking (Table 6)
Assay type: cell-based
Settings: closed state, read-out: CAv1.2 IC50 Closed
For each entry below, report its IC50 value.
# output: bare number, implied unit µM

What does the record list as IC50 for O=C(NC[C@H]1C[C@H](S(=O)(=O)c2cc(F)cc(C(F)(F)F)c2)C1)c1ccc(OCC(F)(F)F)nc1 ?
7.98

Need IC50, item CC(C)([C@H]1C[C@H](NS(=O)(=O)c2ccc(OC(F)(F)F)cc2)C1)S(=O)(=O)c1cc(F)cc(C(F)(F)F)c1
8.93

Fill in the blank: the reported IC50 of O=C(NC[C@H]1C[C@H](S(=O)(=O)c2cccc(C(F)(F)F)c2)C1)c1ccc(C(F)(F)F)cc1 is ____.
7.35

* * *

For each entry below, report its pIC50 value.
Molecular target: human α1G T-type channels (Homo sapiens)
Assay: T-type calcium channel block, whole cell patch clamp, α1G
Assay type: cell-based
Conditions: HEK cells stably expressing human α1G; mainly non-inactivated protocol; values above 10,000 nM represented as 10000
Friendly reminder that pIC50 comes from taking -log10 of the concentration in mol/L.

For the molecule CC(C)(CNC(=O)c1ccc(F)c(Cl)c1)S(=O)(=O)c1cccc(C(F)(F)F)c1 , what pIC50 is on record?
6.02

Would you mind telling me what pIC50 value was observed for O=S(=O)(NC[C@H]1C[C@H](S(=O)(=O)c2cccc(C(F)(F)F)c2)C1)c1ccc(C(F)(F)F)cc1 ?
5.64

Could you share which pIC50 value was measured for CN(Cc1ccc(F)c(C(F)(F)F)c1)C(=O)C(C)(C)S(=O)(=O)c1cccc(C(F)(F)F)c1 ?
6.21

Dear colleague, I am looking for the recorded pIC50 of the following molecule: O=C(Nc1cc(C(F)(F)F)ccn1)[C@H]1C[C@H](S(=O)(=O)c2cccc(C(F)(F)F)c2)C1
5.58

Param item = CC(C)(CCS(=O)(=O)c1cc(Cl)cc(Cl)c1)S(=O)(=O)c1cccc(C(F)(F)F)c1 ; retrieve measured pIC50.
6.72

What does the data say about its pIC50? Entry: O=C(NCC1(O)CCC(S(=O)(=O)c2cccc(C(F)(F)F)c2)CC1)c1ccc(F)c(Cl)c1 (stereo not drawn)
5.93

Recorded pIC50 for O=C(N[C@H]1C[C@H](CS(=O)(=O)c2cccc(C(F)(F)F)c2)C1)c1ccc(F)c(C(F)(F)F)c1 , please?
5.26

What value of measured pIC50 is listed for O=C(NC[C@H]1C[C@H](S(=O)(=O)c2cccc(C(F)(F)F)c2)C1)c1ccnn1CC(F)(F)F ?
6.05

Recorded pIC50 of CC1(S(=O)(=O)c2cccc(C(F)(F)F)c2)CCC(NC(=O)c2cc(F)cc(Cl)c2)CC1 (stereo not drawn) , please.
5.28

Requested read-out: pIC50. Entry: CC(C)(CC(=O)Nc1ccc(Oc2ccc(F)cc2)cc1)S(=O)(=O)c1cccc(C(F)(F)F)c1
6.29

State the recorded pIC50 for this entry: CC1(S(=O)(=O)c2cccc(C(F)(F)F)c2)CCN(C(=O)CNC2CCCCC2)CC1
5.51

* * *

Consider the following compounds; for each one, report its IC50.
Biological target: N-type calcium channel subunits (α1B, α2δ, and β3a) (Homo sapiens)
Assay: Block of Cav2.2 channel, whole cell voltage clamp, manual and PatchXpress
Type: cell-based
Settings: Table 5; table follows Assay Example 3 (whole cell voltage clamp / PatchXpress); assay not given
Express the result in nM but write the number alone.

# IC50 lookup, item CN(C(=O)CN[C@H]1CC[C@@H](CS(=O)(=O)c2cccc(C(F)(F)F)c2)CC1)C(C)(C)C [Compound 145]
1190

# input compound: CC(C)(C)NC(=O)CNC1(C)CCC(F)(S(=O)(=O)c2cccc(C(F)(F)F)c2)CC1 (stereo not shown) [Compound 98] ; wanted: its IC50
680

I'd like to know its IC50. The compound in question is O=C(NC1CCC(S(=O)(=O)c2cccc(C(F)(F)F)c2)CC1)c1ccc(C(F)(F)F)nc1 (stereo not shown) [Compound 8]
2300

Query (compound): O=S(=O)(N[C@H]1CC[C@@](F)(S(=O)(=O)c2cccc(C(F)(F)F)c2)CC1)c1ccc(C(F)(F)F)cc1Cl [Compound 297] ; field requested: IC50
720

Entry under review: O=C(N[C@H]1C[C@H](CS(=O)(=O)c2cccc(C(F)(F)F)c2)C1)c1ccc(F)c(Cl)c1 [Compound 348] . Reported IC50?
1030

Any idea what its IC50 is? The compound is CN(CC(=O)N[C@H]1CC[C@H](CS(=O)(=O)c2cccc(C(F)(F)F)c2)CC1)C(C)(C)C [Compound 161]
2450

Record request: IC50 value, item O=C(N[C@H]1CC[C@H](S(=O)(=O)c2cccc(C(F)(F)F)c2)CC1)C1CCOCC1 [Compound 63]
9980

// IC50 lookup, key: O=C(N[C@H]1CC[C@@H](S(=O)(=O)c2cccc(C(F)(F)F)c2)CC1)c1ccc(Cl)c(OC(F)(F)F)c1 [Compound 133]
210

Look up IC50: CC1(NC(=O)CN[C@H]2CC[C@](F)(S(=O)(=O)c3cccc(C(F)(F)F)c3)CC2)CCC1 [Compound 91]
410

Given CS(=O)(=O)c1cc(C(F)(F)F)ccc1C(=O)NC[C@]1(O)CC[C@@H](S(=O)(=O)c2cccc(C(F)(F)F)c2)CC1 [Compound 233] , state its recorded IC50.
3570

# get_value(readout='IC50', item= O=C(Nc1ccc(Oc2ccc(F)cc2)cc1)[C@H]1C[C@H](S(=O)(=O)c2cccc(C(F)(F)F)c2)C1 [Compound 406] )
1540

Reported IC50 for O=C(CN[C@H]1C[C@H](CS(=O)(=O)c2cccc(C(F)(F)F)c2)C1)NC1CCCCC1 [Compound 353] : what is it?
3210

# get_value(readout='IC50', item= O=S(=O)(NC[C@H]1C[C@H](S(=O)(=O)c2cccc(C(F)(F)F)c2)C1)c1cccc(C(F)(F)F)c1 [Compound 427] )
920

Entry under review: O=C(N[C@H]1CC[C@H](S(=O)(=O)c2cccc(C(F)(F)F)c2)CC1)c1ccc(C(F)(F)F)nc1 [Compound 186] . Reported IC50?
5840

Which IC50 value is on record for O=C(N[C@H]1CC[C@@](F)(S(=O)(=O)c2cc(F)cc(C(F)(F)F)c2)CC1)c1cc(C(F)(F)F)n[nH]1 [Compound 324] ?
1060

Which value of IC50 has been reported for CC1(NC(=O)c2cc(F)cc(Cl)c2)CCC(F)(S(=O)(=O)c2cccc(C(F)(F)F)c2)CC1 (stereo not shown) [Compound 93] in the records?
240

IC50 lookup needed for O=S(=O)(CCC(F)(F)F)NC[C@H]1C[C@H](S(=O)(=O)c2cccc(C(F)(F)F)c2)C1 [Compound 425] , thanks.
3760

Suppose we examine the compound O=C(Nc1ccc(Oc2ccc(C(F)(F)F)nc2)nc1)[C@H]1C[C@H](S(=O)(=O)c2cccc(C(F)(F)F)c2)C1 [Compound 401] ; what IC50 value has been reported?
1430

// lookup IC50 for Cn1cc(C(=O)N[C@H]2CC[C@@H](S(=O)(=O)c3cccc(C(F)(F)F)c3)CC2)c(C(F)(F)F)n1 [Compound 45]
1290

What measured IC50 goes with Cc1noc(C)c1S(=O)(=O)N[C@H]1CC[C@@](F)(S(=O)(=O)c2cccc(C(F)(F)F)c2)CC1 [Compound 298] ?
850

For the compound CC1(NC(=O)c2ccc(F)c(C(F)(F)F)c2)CCC(S(=O)(=O)c2cccc(C(F)(F)F)c2)CC1 (stereo not shown) [Compound 309] , what IC50 is on record?
1390

Any idea what IC50 was measured for COc1cc(F)cc(C(=O)NC2(C)CCC(F)(S(=O)(=O)c3cccc(C(F)(F)F)c3)CC2)c1 (stereo not shown) [Compound 94] ?
230

Please look up its IC50: Cn1nc(C(F)(F)F)cc1C(=O)N[C@H]1C[C@H](CS(=O)(=O)c2cccc(C(F)(F)F)c2)C1 [Compound 350]
1410

So what's the measured IC50 for this one? CC1(CNC(=O)c2ccc(F)c(Cl)c2)CCC(F)(S(=O)(=O)c2cccc(C(F)(F)F)c2)CC1 (stereo not shown) [Compound 153]
500

Which IC50 reading was recorded for the compound O=C(NC[C@H]1C[C@H](S(=O)(=O)c2cccc(C(F)(F)F)c2)C1)c1ccc(Cl)c(Cl)c1 [Compound 369] ?
160

Which measured IC50 value corresponds to CC1(CNC(=O)c2ccc(C(F)(F)F)nc2)CCC(S(=O)(=O)c2cccc(C(F)(F)F)c2)CC1 (stereo not shown) [Compound 213] ?
620

Value lookup for IC50; key = O=C1c2ccc(C(F)(F)F)nc2CN1[C@H]1CC[C@@](F)(S(=O)(=O)c2cccc(C(F)(F)F)c2)CC1 [Compound 290]
420

Can you share its IC50? I mean this compound: O=C(N[C@H]1CC[C@@](F)(S(=O)(=O)c2cccc(C(F)(F)F)c2)CC1)c1cnc(C(F)(F)F)nc1 [Compound 261]
1720
